System: HeLa
Assay: SRB colorimetric assay of cell growth and viability, HeLa
Type: cell-based, human
Conditions: 48 hours exposure, SRB; read-out: LC50 HELA
observed_property: CC50 (µM)
Kindly answer with a numeric value in µM, unit omitted.

[Q] Param item = C/C=C1\NC(=O)[C@H](Cc2ccccc2)NC(=O)[C@@H](C(C)C)NC(=O)[C@@H]([C@@H](C)CC)NC(=O)[C@H](NC(=O)[C@H](NC(=O)[C@H](CCCN)NC(=O)[C@H]2CCCN2C(=O)[C@H](NC(=O)[C@@H](NC(=O)[C@@H](NC(=O)[C@H](NC(=O)CC[C@@H](C)CC)C(C)C)[C@@H](C)OC(=O)C(F)(F)F)C(C)C)C(C)C)[C@@H](C)CC)[C@@H](C)OC(=O)[C@H](C(C)C)NC1=O ; retrieve measured CC50.
[A] 3.02

----------
System: HeLa-APL
Assay: SRB colorimetric assay of cell growth and viability, HeLa-APL
Type: cell-based, human
Conditions: 48 hours exposure; read-out: LC50 HELA-APL
Where a SMILES comes first, the peptide text is derived from it. Bridges are numbered along the chain shown (N, C = ends). [ ]: non-standard residue; d: D form. The star is where a group is joined. d(aIle) = CC[C@H](C)[C@@H](N)C(=O)O; d(aThr) = C[C@@H](O)[C@@H](N)C(=O)O; Hexanoyl(5-Me) = CC(C)CCCC(=O)*; Orn = NCCC[C@H](N)C(=O)O; Dhb = C/C=C(\N)C(=O)O
observed_property: CC50 (µM)
Give just the numeric value; µM need not be written.

Observe how each entry below is paired with its result.
| molecule | CC50 (µM) |
| --- | --- |
| C/C=C1\NC(=O)[C@H](Cc2ccccc2)NC(=O)[C@@H](C(C)C)NC(=O)[C@@H]([C@@H](C)CC)NC(=O)[C@H](NC(=O)[C@H](NC(=O)[C@H](CCCN)NC(=O)[C@H]2CCCN2C(=O)[C@H](NC(=O)[C@@H](NC(=O)[C@@H](NC(=O)[C@H](NC(=O)Cc2cc(F)cc(F)c2)C(C)C)[C@@H](C)O)C(C)C)C(C)C)[C@@H](C)CC)[C@@H](C)OC(=O)[C@H](C(C)C)NC1=O [Compound 22, [3,5-dFPhAc^14]-KF] | 6.58 |
| C/C=C1\NC(=O)[C@H](Cc2ccccc2)NC(=O)[C@@H](C(C)C)NC(=O)[C@@H]([C@@H](C)CC)NC(=O)[C@H](NC(=O)[C@H](NC(=O)[C@H](CCCN)NC(=O)[C@H]2CCCN2C(=O)[C@H](NC(=O)[C@H](CCC(N)=O)NC(=O)[C@@H](NC(=O)[C@H](NC(=O)CCCC(C)C)C(C)C)[C@@H](C)O)C(C)C)[C@@H](C)CC)[C@@H](C)OC(=O)[C@H](C(C)C)NC1=O [Compound 48, [Gln^11]-KF] ({Hexanoyl(5-Me)}-[dV]TQ[dV][dP][Orn][d(aIle)][d(aThr)][d(aIle)][dV]F[Dhb]V; ester 8-C) | 6.64 |
| C/C=C1\NC(=O)[C@H](Cc2ccccc2)NC(=O)[C@@H](C(C)C)NC(=O)[C@@H](C(C)CC)NC(=O)[C@H](NC(=O)[C@H](NC(=O)[C@H](CCCN)NC(=O)[C@H]2CCCN2C(=O)[C@H](NC(=O)[C@@H](NC(=O)[C@@H](NC(=O)[C@H](NC(=O)CCC(C)CC)C(C)C)C(C)O)C(C)C)C(C)C)C(C)CC)C(C)OC(=O)[C@H](C(C)C)NC1=O (some centres unmarked) | 3.81 |

Lab note: next molecule to report on.
[Q] // returns reported CC50 for input C/C=C1\NC(=O)[C@H](Cc2ccccc2)NC(=O)[C@@H](C(C)C)NC(=O)[C@@H]([C@@H](C)CC)NC(=O)[C@H](NC(=O)[C@H](NC(=O)[C@H](CCCN)NC(=O)[C@H]2CCCN2C(=O)[C@H](NC(=O)[C@@H]2CCCN2C(=O)[C@@H](NC(=O)[C@H](NC(=O)CCCC(C)C)C(C)C)[C@@H](C)O)C(C)C)[C@@H](C)CC)[C@@H](C)OC(=O)[C@H](C(C)C)NC1=O [Compound 47, [Pro^11]-KF] ({Hexanoyl(5-Me)}-[dV]TP[dV][dP][Orn][d(aIle)][d(aThr)][d(aIle)][dV]F[Dhb]V; ester 8-C)
[A] 6.78

----------
System: HeLa-APL
Test: SRB colorimetric assay of cell growth and viability, HeLa-APL
Assay type: cell-based, human
Settings: 48 hours exposure; read-out: LC50 HELA-APL
Where a SMILES comes first, the peptide text is derived from it. Bridges are numbered along the chain shown (N, C = ends). [ ]: non-standard residue; d: D form. The star is where a group is joined. d(aIle) = CC[C@H](C)[C@@H](N)C(=O)O; Hexanoyl(5-Me) = CC(C)CCCC(=O)*; Orn = NCCC[C@H](N)C(=O)O; Dhb = C/C=C(\N)C(=O)O
observed_property: CC50 (µM)
Write it as a number; the unit µM goes unstated.

| compound | tgt | observed_property | assay_result |
| --- | --- | --- | --- |
| C/C=C1\NC(=O)[C@H](Cc2ccccc2)NC(=O)[C@@H](C(C)C)NC(=O)[C@@H]([C@@H](C)CC)NC(=O)[C@H](NC(=O)[C@H](NC(=O)[C@H](CCCN)NC(=O)[C@H]2CCCN2C(=O)[C@H](NC(=O)[C@@H](NC(=O)[C@@H](NC(=O)[C@@H](CC2CCCCC2)NC(=O)CCCC(C)C)[C@@H](C)O)C(C)C)C(C)C)[C@@H](C)CC)[C@@H](C)OC(=O)[C@H](C(C)C)NC1=O [Compound 8, [D-Cha^13]-KF] | HeLa-APL | CC50 | 4.86 |

Field: next compound
[Q] Reported CC50, compound C/C=C1\NC(=O)[C@H](Cc2ccccc2)NC(=O)[C@@H](C(C)C)NC(=O)[C@@H]([C@@H](C)CC)NC(=O)[C@H](NC(=O)[C@H](NC(=O)[C@H](CCCN)NC(=O)[C@H]2CCCN2C(=O)[C@H](NC(=O)[C@@H](NC(=O)[C@@H](NC(=O)[C@H](NC(=O)CCCC(C)C)C(C)C)[C@@H](C)O)C(C)C)C(C)C)[C@@H](C)CC)COC(=O)[C@H](C(C)C)NC1=O [Compound 3, [D-Ser^6]-KF] ({Hexanoyl(5-Me)}-[dV]TV[dV][dP][Orn][d(aIle)][dS][d(aIle)][dV]F[Dhb]V; ester 8-C) : ____
[A] 3.78

----------
Each entry below lists one item and its recorded CC50 value.
Tested on: SK-MEL-28
Test: SRB colorimetric assay of cell growth and viability, SK-MEL-28
Format: cell-based, human
Conditions: 48 hours exposure; read-out: LC50 MEL-28
Where a SMILES comes first, the peptide text is derived from it. Bridges are numbered along the chain shown (N, C = ends). [ ]: non-standard residue; d: D form. The star is where a group is joined. d(aIle) = CC[C@H](C)[C@@H](N)C(=O)O; d(aThr) = C[C@@H](O)[C@@H](N)C(=O)O; Hexanoyl(5-Me) = CC(C)CCCC(=O)*; Orn = NCCC[C@H](N)C(=O)O; Dhb = C/C=C(\N)C(=O)O
Enter your answer as a number in µM; do not include the unit.

Completed entries (count: 3):
| compound | assay_result |
| --- | --- |
| C/C=C1\NC(=O)[C@H](Cc2ccccc2)NC(=O)[C@@H](C(C)C)NC(=O)[C@@H]([C@@H](C)CC)NC(=O)[C@H](NC(=O)[C@H](NC(=O)[C@H](CCCN)NC(=O)[C@H]2CCCN2C(=O)[C@H](NC(=O)[C@H](Cc2ccccc2)NC(=O)[C@@H](NC(=O)[C@H](NC(=O)CCCC(C)C)C(C)C)[C@@H](C)O)C(C)C)[C@@H](C)CC)[C@@H](C)OC(=O)[C@H](C(C)C)NC1=O [Compound 43, [Phe^11]-KF] ({Hexanoyl(5-Me)}-[dV]TF[dV][dP][Orn][d(aIle)][d(aThr)][d(aIle)][dV]F[Dhb]V; ester 8-C) | 3.57 |
| C/C=C1\NC(=O)[C@H](Cc2ccccc2)NC(=O)[C@@H](C(C)C)NC(=O)[C@@H]([C@@H](C)CC)NC(=O)[C@H](NC(=O)[C@H](NC(=O)[C@H](CCCN)NC(=O)[C@H]2CCCN2C(=O)[C@H](NC(=O)[C@@H](NC(=O)[C@@H](NC(=O)[C@@H](CC(C)C)NC(=O)CCCC(C)C)[C@@H](C)O)C(C)C)C(C)C)[C@@H](C)CC)[C@@H](C)OC(=O)[C@H](C(C)C)NC1=O [Compound 35, [D-Leu^13]-KF] | 3.79 |
| C/C=C1\NC(=O)[C@H](Cc2ccccc2)NC(=O)[C@@H](C(C)C)NC(=O)[C@@H]([C@@H](C)CC)NC(=O)[C@H](NC(=O)[C@H](NC(=O)[C@H](CCCN)NC(=O)[C@H]2CCCN2C(=O)[C@H](NC(=O)[C@@H](NC(=O)[C@@H](NC(=O)[C@H](NC(=O)Cc2ccc(C(F)(F)F)cc2)C(C)C)[C@@H](C)O)C(C)C)C(C)C)[C@@H](C)CC)[C@@H](C)OC(=O)[C@H](C(C)C)NC1=O [Compound 25, [p-CF3PhAc^14]-KF] | 4.06 |

Now for the compound whose CC50 we want.
[Q] Reported CC50 for C/C=C1\NC(=O)[C@H](Cc2ccccc2)NC(=O)[C@@H](C(C)C)NC(=O)[C@@H]([C@@H](C)CC)NC(=O)[C@H](NC(=O)[C@H](NC(=O)[C@H](CCCN)NC(=O)[C@H]2CCCN2C(=O)[C@H](NC(=O)[C@@H](NC(=O)[C@H](C)NC(=O)CCCC(C)C)C(C)C)C(C)C)[C@@H](C)CC)[C@@H](C)OC(=O)[C@H](C(C)C)NC1=O [Compound 52, [Ala^12, noD-Val^13]-KF] ({Hexanoyl(5-Me)}-AV[dV][dP][Orn][d(aIle)][d(aThr)][d(aIle)][dV]F[Dhb]V; ester 7-C) : what is it?
[A] 7.41
